- test_summary: NCI Yeast Anticancer Drug Screen. Data for the sgs1 mgt1 strain (AID 161)
- conditions: S. cerevisiae sgs1 mgt1 strain, at 5.0 µM (retest, dose inferred, filed as 0.5)
- Experimental: Growth inhibition of yeast strains with defined genetic alterations is measured as a screen for potential anti-cancer activity. Selected strains with alterations in DNA damage repair or cell cycle control were exposed to compounds and growth inhibition was measured relative to vehicle treated controls. The strain used in this assay is sgs1 mgt1
This is part of a sample that, as a whole, favours compounds with a hit. Of some 79,000 tested, about 15% had one in any assay. Activity calls are given as the source filed them. No stated cut-off is given here; in the data, active means growth inhibition above about 70%; inactive means the rest.
Result category, one only: active, inactive

Task item: Per the records of this test, what outcome belongs to c1ccc2c(c1)Cn1c-2nc2ccccc21 ?
Reply: inactive

Task item: // query: N#C/C(=C1C=C(Br)/C(=N\O)C=C\1Cl)c1cccc2ccccc12
Reply: inactive

Task item: // query: O=C1C=CC(=Nc2ccccc2)c2ccccc21
Reply: inactive

Task item: // query: C=C(CCCO)[C@@H]1CC[C@@](C)(O)[C@H]1C
Reply: inactive

Task item: // query: CC1OC(OC2CCCc3c(O)c4c(c(O)c32)C(=O)c2ccccc2C4=O)CC(N)C1O (stereo unspecified)
Reply: inactive

Task item: // query: O=C1CSC(=S)N1Cc1ccc(Cl)cc1Cl
Reply: inactive

Task item: // query: COC(=O)c1ccc2c(c1)Cc1ccccc1-2
Reply: inactive

Task item: // query: O/N=C/C1c2ccccc2-c2ccccc21
Reply: inactive

Task item: // query: COc1ccc(N)c2c1C(=O)c1ccccc1C2=O
Reply: inactive

Task item: // query: O=C1c2cccc3cc([N+](=O)[O-])cc(c23)C(=O)N1CCN1CCCC1
Reply: inactive

Task item: // query: CCOC(=O)C1=C(C)NC(C)=C(C(=O)OCC)C1c1ccccc1Cl
Reply: inactive

Task item: // query: NC(=O)N1c2ccccc2C=Cc2ccccc21
Reply: inactive

Task item: // query: c1ccc2c(c1)ccc1c3ccncc3ccc21
Reply: inactive

Task item: // query: COC(=O)CSc1nnc(CSc2ccc(Cl)cc2)n1-c1ccccc1
Reply: inactive

Task item: // query: O=C(N/N=C\c1c(Cl)cccc1Cl)N/N=C/c1c(Cl)cccc1Cl
Reply: inactive

Task item: // query: NCc1c(O)ccc2ccccc12
Reply: inactive

Task item: // query: NNC(=S)Nc1cccc2ccccc12
Reply: inactive

Task item: // query: CN(C)CC1CCCc2ccccc2C1=O (stereo unspecified)
Reply: inactive

Task item: // query: BrCc1ccccc1C(c1ccccc1)c1ccccc1
Reply: inactive

Task item: // query: O=C1C=CC(=O)N1c1ccc(I)cc1
Reply: active

Task item: // query: O=C1CC(=O)N(C2CCCCC2)C(=O)N1c1ccccc1S(=O)(=O)Oc1ccccc1
Reply: inactive

Task item: // query: COc1cccc(C(c2cc3c(cc2O)OCO3)N2CCOCC2)c1OC (stereo unspecified)
Reply: inactive

Task item: // query: O=C1c2ccccc2CCC1(Br)Br
Reply: inactive

Task item: // query: O=S(=O)(c1cc(Cl)ccc1O)c1cc(Cl)ccc1O
Reply: active

Task item: // query: CN(C)CCNc1cccc2sc3ccc(O)cc3c(=O)c12
Reply: inactive

Task item: // query: O=C(/C=C\c1ccc([N+](=O)[O-])o1)Nc1ccc(Cl)cc1
Reply: inactive

Data origin, for the record: PubChem BioAssay (NCI)
